- target-or-system: KRAS^G12D I36N (Homo sapiens, UniProt P01116, G12D/I36N)
- Construct: His6 (N); made in house
- Sequence (P01116 1-169 isoform P01116-2 G12D/I36N): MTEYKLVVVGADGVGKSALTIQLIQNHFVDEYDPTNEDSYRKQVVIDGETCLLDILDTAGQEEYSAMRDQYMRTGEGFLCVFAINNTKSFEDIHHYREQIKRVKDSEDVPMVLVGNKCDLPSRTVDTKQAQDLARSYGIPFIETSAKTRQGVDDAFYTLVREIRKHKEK
- procedure-details: Microscale thermophoresis on binding-site mutant KRAS^G12D I36N
- conditions: MST, 31MEW44, FIG. 14H
property-label: pKd
One number for each entry, as −log10 of the molar value.

Input: Consider the compound shown here: NC1(C(=O)NCCCn2cc(-c3ccc(OC(F)(F)F)cc3)c3cc(CN4CCN(Cc5c(Cl)cccc5Cl)CC4)ccc32)CCNCC1 What is its recorded pKd?
Output: 3.70
